experiment: Single ascending dose study, pharmacokinetics; assay type: in vivo, human; details: human, plasma, po, 40 mg, Normal healthy volunteer, 40 mg oral, Fasted
Experimental Readout: AUC(0-inf) (ng·h/mL)
Please respond with the number in ng·h/mL and leave the unit unwritten.

Ask: If you can, please state the reported AUC(0-inf) value of Cc1cc(C)c(-c2ccc(NC(=O)[C@H](Cc3ccc(C(=O)NCCS(=O)(=O)O)cc3)c3ccc(-c4ccc(C(C)(C)C)cc4)cc3)cc2)c(C)c1 [IIIa] .
Result: 32700

----------
assay: Pharmacokinetics after oral and IV administration; assay type: in vivo; settings: plasma; Mouse; IV Dose 1 mg/kg, PO Dose 3 mg/kg
Experimental Readout: Tmax (h)
Please respond with the number in h and leave the unit unwritten.

Ask: If you can, please state the reported Tmax value of Cc1cc(C)c(-c2ccc(NC(=O)[C@H](Cc3ccc(C(=O)NCCS(=O)(=O)O)cc3)c3ccc(-c4ccc(C(C)(C)C)cc4)cc3)cc2)c(C)c1 [IIIa] .
Result: 6
